B1: TRIM39 (parent)
chain: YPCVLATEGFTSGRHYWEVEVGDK

- Variants of: B1
- Assay Protocol: protein stability index of a GFP-peptide fusion (GPS, HEK-293T) (PSI 1-6); higher = more stable;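 further: lentivirally expressed fusions sorted by FACS into six bins by GFP to DsRed ratio, PSI derived from sequencing read proportions per bin multiplied by bin number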
- Settings: c terminus: a fixed tail appended
Value Type: protein stability index
No unit in the answer, please; the number alone is enough.

YPGVLATEGFTSGRHYWEVEVGDK [C3G]    1.98
YPCVLAPEGFTSGRHYWEVEVGDK [T7P]    1.75
YPCVLATEGFTSGRHTWEVEVGDK [Y16T]    1.35
YPCVGATEGFTSGRHYWEVEVGDK [L5G]    1.87
YPLVLATEGFTSGRHYWEVEVGDK [C3L]    2.09

Exercise: State its protein stability index for this variant: YPCVLMTEGFTSGRHYWEVEVGDK [A6M]
Solution: 1.4

Exercise: State its protein stability index: YPCVLNTEGFTSGRHYWEVEVGDK [A6N]
Solution: 2.47

Exercise: Let me know recorded protein stability index for YPCVLATEGFTSGRHYREVEVGDK [W17R] , thanks.
Solution: 2.88
